System: 5-HT3 receptor (Cavia porcellus)
Assay: Maximal partial agonist activity at 5-hydroxytryptamine 3 receptor of isolated guinea pig ileum as ratio to 5-HT response

{"CHEM_SMILES": "Cc1c(Cl)cc2nc(N3CCN(C)CC3)oc2c1C", "IA": 0.14}
{"CHEM_SMILES": "Cc1cc(Cl)cc2nc(N3CCCN(C)CC3)oc12", "IA": 0.12}
{"CHEM_SMILES": "CN1CCCN(c2nc3cc(Cl)ccc3o2)CC1", "IA": 0.31}
{"CHEM_SMILES": "Cc1c(Cl)cc2nc(N3CCN(C)CC3)oc2c1Cl", "IA": 0.1}
{"CHEM_SMILES": "c1ccc2oc(C3CCNCC3)nc2c1", "IA": 0.31}
{"CHEM_SMILES": "CN1CCCN(c2nc3ccccc3o2)CC1", "IA": 0.54}
{"CHEM_SMILES": "CN1CCN(c2nc3cc(F)ccc3o2)CC1", "IA": 0.64}
{"CHEM_SMILES": "Cc1ccc2nc(N3CCN(C)CC3)oc2c1", "IA": 0.85}
{"CHEM_SMILES": "Cc1ccc2oc(N3CCN(C)CC3)nc2c1", "IA": 0.72}
{"CHEM_SMILES": "Cc1cc(C)c2oc(N3CCN(C)CC3)nc2c1", "IA": 0.62}
{"CHEM_SMILES": "CN1CCN(c2nc3cc(Br)ccc3o2)CC1", "IA": 0.48}
{"CHEM_SMILES": "CN1CCN(c2nc3cc(Cl)cc(Cl)c3o2)CC1", "IA": 0.14}
{"CHEM_SMILES": "CN1CCN(c2nc3cc(Cl)ccc3o2)CC1", "IA": 0.5}
{"CHEM_SMILES": "Cc1cc2nc(N3CCN(C)CC3)oc2cc1C", "IA": 0.66}
{"CHEM_SMILES": "Cc1cc2oc(N3CCN(C)CC3)nc2cc1Cl", "IA": 0.28}
{"CHEM_SMILES": "Cc1cccc2nc(N3CCN(C)CC3)oc12", "IA": 0.58}
{"CHEM_SMILES": "Cc1cc(Cl)cc2nc(N3CCN(C)CC3)oc12", "IA": 0.24}
{"CHEM_SMILES": "CN1CCN(c2nc3ccccc3o2)CC1", "IA": 0.62}
